Assay: Apparent permeability of the compound at pH 7.05 by PAMPA assay
Type: ADME
OBSERVATION TYPE: Papp

Prompt line: Which measured Papp value corresponds to COc1ccc2c(O[C@@H]3C[C@H]4C(=O)N[C@]5(C(=O)NS(=O)(=O)C6CC6)C[C@H]5/C=C\CCCCCC(OC(=O)n5ccnc5)C(=O)N4C3)cc(-c3nc(C(C)C)cs3)nc2c1C (stereo partly specified) ?
Response line: 1.2 ×10⁻⁶ cm/s

The measured values listed here are drawn from ChEMBL document CHEMBL2016556.
